Data origin: paper PMC4512242

TARGET_OF_ASSAY: T1, LynD R399E (Lyngbya sp. PCC 8106, R399E)
T1 chain: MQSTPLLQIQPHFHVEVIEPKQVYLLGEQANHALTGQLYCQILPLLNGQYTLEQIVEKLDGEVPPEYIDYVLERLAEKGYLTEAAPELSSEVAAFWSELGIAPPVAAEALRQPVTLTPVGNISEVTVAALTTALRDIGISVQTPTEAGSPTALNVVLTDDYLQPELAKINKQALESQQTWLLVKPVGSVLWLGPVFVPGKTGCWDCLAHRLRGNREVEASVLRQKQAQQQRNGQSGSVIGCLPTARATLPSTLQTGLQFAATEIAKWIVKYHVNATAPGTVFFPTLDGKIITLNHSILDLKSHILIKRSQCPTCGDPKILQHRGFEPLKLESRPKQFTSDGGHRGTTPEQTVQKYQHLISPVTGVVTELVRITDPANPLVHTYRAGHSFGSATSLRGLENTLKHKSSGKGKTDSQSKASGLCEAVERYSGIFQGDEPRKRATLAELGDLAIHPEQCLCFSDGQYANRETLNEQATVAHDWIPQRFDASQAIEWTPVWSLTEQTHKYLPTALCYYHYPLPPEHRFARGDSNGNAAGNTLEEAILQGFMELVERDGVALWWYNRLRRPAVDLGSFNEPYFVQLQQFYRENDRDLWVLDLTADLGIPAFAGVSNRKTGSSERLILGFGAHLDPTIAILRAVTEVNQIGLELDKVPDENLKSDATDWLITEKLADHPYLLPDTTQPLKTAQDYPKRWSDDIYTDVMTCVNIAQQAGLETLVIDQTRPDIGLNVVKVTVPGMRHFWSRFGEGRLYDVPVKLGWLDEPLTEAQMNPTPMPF
ASSAY_NAME: ITC
Recorded pKd, one value per entry.
Kindly note that pKd refers to -log10 of the concentration in mol/L and answer with the value alone.

- BINDER: "PatE′ (modified PatE precursor peptide with full leader and a single core peptide ITACITFC) (peptide) MDKKNILPQQGQPVIRLTAGQLSSQLAELSEEALGDAGLEASKITACITFCAYDGELE"
  pKd: 4.97

Query: Quick one: give measured pKd for PatE′ E32R (peptide) MDKKNILPQQGQPVIRLTAGQLSSQLAELSERALGDAGLEASKITACITFCAYDGELE
Result: 5.07
